- Test system: 817829-284-R-J1-PDC complex spheroids, viability
- experimental_protocol: Anticancer human tumor 817829-284-R-J1-PDC patient-derived colon adenocarcinoma cell line growth inhibition [CLK]; active = viability on the fitted dose curve at most 10% of control; inactive = the rest
- setup_conditions: second compound 0.0316 µM; first compound 3.16 µM
Choose one outcome from this list and give only that: class 1 = active, class 0 = inactive

[Q] Identify the outcome logged in this assay for the compound shown: C=C(F)C(=O)N1CCN(c2nc(OCC3CCCN3C)nc3c2CCN(c2cccc4cccc(Cl)c24)C3)CC1CC#N (stereo not given) + CN1CCN(c2cc(C(=O)Nc3cc4cc(-c5cnn(C)c5)ccc4cn3)ccn2)CC1
[A] class 0

[Q] For CCCS(=O)(=O)Nc1ccc(F)c(C(=O)c2c[nH]c3ncc(-c4ccc(Cl)cc4)cc23)c1F + CN1CCN(c2cc(C(=O)Nc3cc4cc(-c5cnn(C)c5)ccc4cn3)ccn2)CC1 , which call appears in the assay record?
[A] class 0

[Q] For this compound, state the assay outcome: COc1cccc2c1C(=O)c1c(O)c3c(c(O)c1C2=O)CC(O)(C(=O)CO)CC3OC1CC(N)C(O)C(C)O1 (stereo not given) + CN1CCN(c2cc(C(=O)Nc3cc4cc(-c5cnn(C)c5)ccc4cn3)ccn2)CC1
[A] class 1

[Q] Test call for this compound, please: CC(Nc1ccc2c(c1)OCCn1cc(N3C(=O)OCC3C(F)F)nc1-2)C(N)=O (stereo not given) + CN1CCN(c2cc(C(=O)Nc3cc4cc(-c5cnn(C)c5)ccc4cn3)ccn2)CC1
[A] class 0

[Q] Look up the recorded call for CC1COCCN1c1cc(C2(S(C)(=N)=O)CC2)nc(-c2ccnc3[nH]ccc23)n1 (stereo not given) + CN1CCN(c2cc(C(=O)Nc3cc4cc(-c5cnn(C)c5)ccc4cn3)ccn2)CC1 in this test.
[A] class 1

----------
- System: 817829-284-R-J1-PDC complex spheroids, viability
- experimental_protocol: Anticancer human tumor 817829-284-R-J1-PDC cell line growth inhibition [CLK]; active means viability on the fitted dose curve at most 10% of control; inactive means the rest;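 also: spheroids exposed to the agents for seven days before readout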
- setup_conditions: second compound 10 µM; first compound 0.316 µM
- Description: A high-throughput screen of multi-cell type tumor spheroids was designed to identify active combinations of […] and targeted small molecules. Complex spheroids include a stromal component modeled by human endothelial cells (HUVEC) and fibroblasts modeled by human mesenchymal stem cells (MSCs). […] Compounds. […] If the clinical Cmax for an agent had not been determined, the highest concentration tested was 10 microM. […]
Just give me one of these, please: 1.0 = active, 0.0 = inactive

[Q] Field: outcome | Entry: CC(Nc1ccc2c(c1)OCCn1cc(N3C(=O)OCC3C(F)F)nc1-2)C(N)=O (stereo not given) + CNC(=O)c1ccc(Nc2nc(OC3CCCC3)c3c(-c4ccc5nc(C)oc5c4)c[nH]c3n2)c(OC)c1
[A] 0.0

[Q] What is the recorded call for this compound in the test? CCN1CCN(Cc2ccc(Nc3ncc(F)c(-c4cc(F)c5nc(C)n(C(C)C)c5c4)n3)nc2)CC1 + CN1CCN(c2cc(C(=O)Nc3cc4cc(-c5cnn(C)c5)ccc4cn3)ccn2)CC1
[A] 1.0

[Q] What did the test return for Nc1ccn(C2OC(CO)C(O)C2(F)F)c(=O)n1 (stereo not given) + CNC(=O)c1ccc(Nc2nc(OC3CCCC3)c3c(-c4ccc5nc(C)oc5c4)c[nH]c3n2)c(OC)c1 ?
[A] 1.0

[Q] Please let me know the test result on file for COC1C=CCC(C)C(C)S(=O)(=O)NC(=O)c2ccc3c(c2)N(CC2CCC21)CC1(CCCc2cc(Cl)ccc21)CO3 (stereo not given) + CNC(=O)c1ccc(Nc2nc(OC3CCCC3)c3c(-c4ccc5nc(C)oc5c4)c[nH]c3n2)c(OC)c1 .
[A] 0.0

[Q] Hey, what did the test say about CC(CO)NC(=O)c1cc(-c2ccc(Cl)cc2)nn(-c2cnn(C)c2)c1=O (stereo not given) + CNC(=O)c1ccc(Nc2nc(OC3CCCC3)c3c(-c4ccc5nc(C)oc5c4)c[nH]c3n2)c(OC)c1 ?
[A] 0.0
